Target: Tyrosinase (Agaricus bisporus)
Sequence (O42713 whole entry): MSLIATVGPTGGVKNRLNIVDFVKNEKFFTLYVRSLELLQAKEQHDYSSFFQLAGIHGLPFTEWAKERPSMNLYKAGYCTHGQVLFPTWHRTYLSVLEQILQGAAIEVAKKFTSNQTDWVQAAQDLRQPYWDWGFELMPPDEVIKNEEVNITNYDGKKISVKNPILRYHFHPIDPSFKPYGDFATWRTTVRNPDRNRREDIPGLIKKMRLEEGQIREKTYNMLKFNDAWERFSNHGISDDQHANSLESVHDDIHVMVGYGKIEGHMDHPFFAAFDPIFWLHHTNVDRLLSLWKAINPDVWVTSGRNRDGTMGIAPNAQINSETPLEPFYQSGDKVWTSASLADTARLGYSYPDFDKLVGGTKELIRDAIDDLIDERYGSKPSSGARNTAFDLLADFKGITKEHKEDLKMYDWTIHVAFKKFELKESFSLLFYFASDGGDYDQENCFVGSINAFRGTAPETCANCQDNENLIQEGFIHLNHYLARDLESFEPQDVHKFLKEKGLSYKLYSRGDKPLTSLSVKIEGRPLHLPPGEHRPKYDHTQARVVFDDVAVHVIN
Test: Inhibition of mushroom tyrosinase by kinetic based assay
Conditions: read-out: Ki(app)
pKi: −log10 of the molar value.
MEASUREMENT LABEL: pKi

[a] CC(C)=CCc1c(CCCc2ccc(O)cc2O)cc(O)c(O)c1CC=C(C)C
[b] CC(C)=CCc1cc(CCCc2ccc(O)cc2O)ccc1O
[c] C=CC(C)(C)c1cc(CCCc2cc(O)c(O)c(CC3OC3(C)C)c2CC=C(C)C)c(O)cc1O (stereo not drawn)
Problem: // rank the listed molecules by pKi, lowest value first Kindly provide the labels arranged according to the requested ordering.
Solution: c, a, b
(c: 6.06, a: 6.74, b: 7.31)

====

Molecular target: Tyrosinase (Agaricus bisporus, UniProt O42713)
Sequence (O42713 whole entry): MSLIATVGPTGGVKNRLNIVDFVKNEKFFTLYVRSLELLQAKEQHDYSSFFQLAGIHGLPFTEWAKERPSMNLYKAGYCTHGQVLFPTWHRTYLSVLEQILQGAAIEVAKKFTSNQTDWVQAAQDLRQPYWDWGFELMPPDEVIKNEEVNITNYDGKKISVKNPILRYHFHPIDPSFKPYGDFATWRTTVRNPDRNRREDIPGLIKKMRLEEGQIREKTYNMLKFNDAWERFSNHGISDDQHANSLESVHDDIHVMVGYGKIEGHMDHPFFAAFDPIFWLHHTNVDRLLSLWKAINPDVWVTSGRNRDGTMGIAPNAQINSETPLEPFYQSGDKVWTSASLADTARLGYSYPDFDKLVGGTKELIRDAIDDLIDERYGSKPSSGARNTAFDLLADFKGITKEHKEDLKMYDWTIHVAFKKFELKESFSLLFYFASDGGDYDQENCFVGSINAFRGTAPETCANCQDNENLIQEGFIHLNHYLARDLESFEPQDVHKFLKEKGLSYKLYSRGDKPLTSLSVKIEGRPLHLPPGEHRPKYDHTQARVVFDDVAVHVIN
Experiment: Inhibition of monophenolase activity of mushroom tyrosinase using as L-tyrosine substrate
MEASUREMENT LABEL: IC50 (µM)

COMPOUND | MEASUREMENT LABEL | MEASURED
C=CC(C)(C)c1cc(CCCc2cc(O)c(O)c(CC3OC3(C)C)c2CC=C(C)C)c(O)cc1O (stereo unspecified) | IC50 | 17.9
CC(C)=CCc1cc(CCCc2ccc(O)cc2O)ccc1O | IC50 | 0.43
C=CC(C)(C)c1cc(CCCc2cc(O)c(O)c(CC=C(C)C)c2CC=C(C)C)c(O)cc1O | IC50 | 15.5

[I] C=CC(C)(C)c1cc(CCCc2cc(O)c3c(c2CC=C(C)C)CC(C(C)(C)O)O3)c(O)cc1O (stereo unspecified)
[II] CC(C)=CCc1c(CCCc2ccc(O)cc2O)cc(O)c(O)c1CC=C(C)C
[III] C=CC(C)(C)c1cc(CCCc2cc(O)c3c(c2CC=C(C)C)CCC(C)(C)O3)c(O)cc1O
Problem: rank_up(items): orders items by reported IC50 in ascending numerical order. Order the labels as requested and give them as your answer.
Solution: II, I, III
(II: 0.96 µM, I: 103 µM, III: 165 µM)

====

Molecular target: Tyrosinase (Agaricus bisporus, UniProt O42713)
Assay: Inhibition of diphenolase activity of mushroom tyrosinase using as L-DOPA substrate by Lineweaver-Burke plot based kinetic assay
MEASUREMENT LABEL: Ki (µM)

Consider the worked cases shown below.
COMPOUND | MEASURED
CC(C)=CCc1c(CCCc2ccc(O)cc2O)cc(O)c(O)c1CC=C(C)C | 0.77
C=CC(C)(C)c1cc(CCCc2cc(O)c(O)c(CC=C(C)C)c2CC=C(C)C)c(O)cc1O | 11.2

[1] CC(C)=CCc1cc(CCCc2ccc(O)cc2O)ccc1O
[2] C=CC(C)(C)c1cc(CCCc2cc(O)c(O)c(CC3OC3(C)C)c2CC=C(C)C)c(O)cc1O (centres undefined)
Problem: # argmax over Ki for candidates 1 and 2 Pick one and reply with its label.
Solution: 2
(2: 15.6 µM, 1: 0.29 µM)
